Some molecules, each annotated with its measured CHI Log D.
protocol notes: CHI Log D procedure
Assay type: physicochemical
experimental setup: pH 7.4
Format: numeric value only, no unit, no commentary.

molecule: CC(=O)N1CCC[C@]12CC=CCCCC1(CCCC=CCCCOC(=O)N3CC[C@@](C(=O)N[C@@H](Cc4ccccc4)C(=O)N[C@@H](Cc4csc5ccccc45)C(=O)N[C@@H](CCC(N)=O)C(N)=O)(C3)NC(=O)[C@H](CC(C)C)NC(=O)[C@H](Cc3ccccc3)NC(=O)[C@H](C)NC(=O)[C@H](C)NC(=O)[C@H](CCC(=O)O)NC(=O)[C@H](CC(=O)O)NC1=O)NC(=O)[C@H](CC(C)(C)C)NC(=O)[C@H](CC(=O)O)NC2=O (some centres unmarked) [I-1074]
CHI Log D: 1.92

Consider now this further molecule.
Given CC(=O)N1CCC[C@]12CC=CCCCC1(CCCC=CCCCCCC[C@@](C)(C(=O)N[C@@H](Cc3ccccc3)C(=O)N[C@@H](Cc3c[nH]c4ccccc34)C(=O)N[C@@H](CCC(N)=O)C(N)=O)NC(=O)[C@H](C)NC(=O)[C@H](Cc3ccccc3)NC(=O)[C@H](C)NC(=O)[C@H](C)NC(=O)[C@H](CC(=O)O)NC(=O)[C@H](CC(=O)O)NC1=O)NC(=O)[C@H](C)NC(=O)[C@H](CC(=O)O)NC2=O (some centres unmarked) [I-288] , state its recorded CHI Log D. 1.926

Measured values drawn from patent US20240116985A1 for this set.
